target-desc: IKBKB (human)
protocol-text: KINOMEscan competition binding
applied-conditions: compound 10.0 µM
Exam item: assign met to entries whose kinase still bound, per cent of control is below 90% and not met to entries at or above 90%. Note that a value of exactly 90% receives not met.

Quick check: kinase still bound, per cent of control of CNC(=O)c1cc(Oc2ccc(NC(=O)Nc3ccc(Cl)c(C(F)(F)F)c3)cc2)ccn1 under 90%?
not met

Quick check: kinase still bound, per cent of control of COc1cc2ncnc(-n3nc(-c4ccccn4)nc3N)c2cc1OC under 90%?
met

Quick check: kinase still bound, per cent of control of CN(C)C/C=C/C(=O)Nc1ccc(C(=O)Nc2cccc(Nc3nccc(-c4cccnc4)n3)c2)cc1 under 90%?
met

Continuing:
Quick check: kinase still bound, per cent of control of CS(=O)(=O)N1CCN(Cc2cc3nc(-c4cccc5[nH]ncc45)nc(N4CCOCC4)c3s2)CC1 under 90%?
not met

Quick check: kinase still bound, per cent of control of C=CC(=O)Nc1cc(-n2c(=O)ccc3cnc4ccc(-c5cn[nH]c5)cc4c32)ccc1C under 90%?
met

Quick check: kinase still bound, per cent of control of O=C1NC(=O)/C(=C/c2ccc3nccc(-c4ccncc4)c3c2)S1 under 90%?
met

Quick check: kinase still bound, per cent of control of COc1cc(N2CCN(C)CC2)ccc1Nc1ncc2c(n1)N(C)c1ccccc1C(=O)N2C under 90%?
not met

Quick check: kinase still bound, per cent of control of COc1ccc(N(C(=O)Oc2c(C)cccc2C)c2ccnc(Nc3ccc(N4CCN(C)CC4)cc3)n2)c(OC)c1 under 90%?
not met

###

target-desc: AAK1 (human)
protocol-text: KINOMEscan competition binding
applied-conditions: compound 10.0 µM
observation-type: kinase still bound, per cent of control (%)
Answer format: numeric, % implied, no suffix.

What value of kinase still bound, per cent of control has been reported for the following molecule? C[C@@H](Oc1cc(-c2cnn(C3CCNCC3)c2)cnc1N)c1c(Cl)ccc(F)c1Cl
21

What value of kinase still bound, per cent of control has been reported for the following molecule? COc1cc2ncnc(-n3nc(-c4ccccn4)nc3N)c2cc1OC
6.9

Continuing:
What value of kinase still bound, per cent of control has been reported for the following molecule? C=CC(=O)Nc1ccc(CN(C(=O)Nc2c(Cl)c(OC)cc(OC)c2Cl)c2cc(Nc3ccc(N4CCN(C)CC4)cc3)ncn2)cc1
100

###

Listing of entries alongside the reported kinase still bound, per cent of control.
target-desc: NEK5 (human)
protocol-text: KINOMEscan competition binding
applied-conditions: compound 10.0 µM
Answer format: numeric, % implied, no suffix.

Some compounds with recorded kinase still bound, per cent of control:
What value of kinase still bound, per cent of control has been reported for the following compound? O=C(Nc1cccc(Nc2ncc(Br)c(NCCc3cnc[nH]3)n2)c1)N1CCCC1
0.5

What value of kinase still bound, per cent of control has been reported for the following compound? C[C@@H](Oc1cc(-c2cnn(C3CCNCC3)c2)cnc1N)c1c(Cl)ccc(F)c1Cl
63

What value of kinase still bound, per cent of control has been reported for the following compound? N#CCNC(=O)c1ccc(-c2ccnc(Nc3ccc(N4CCOCC4)cc3)n2)cc1
2.4

What value of kinase still bound, per cent of control has been reported for the following compound? NC(=O)Nc1cc(-c2cccc(F)c2)sc1C(=O)N[C@@H]1CCCNC1
90

Continuing:
What value of kinase still bound, per cent of control has been reported for the following compound? CNC(=O)c1cc(Oc2ccc(NC(=O)Nc3ccc(Cl)c(C(F)(F)F)c3)cc2)ccn1
90

###

target-desc: MAP3K9 (human)
protocol-text: KINOMEscan competition binding
applied-conditions: compound 10.0 µM
observation-type: kinase still bound, per cent of control (%)
Answer format: numeric, % implied, no suffix.

Some compounds with recorded kinase still bound, per cent of control:
What value of kinase still bound, per cent of control has been reported for the following compound? CNC(=O)c1cc(Oc2ccc(NC(=O)Nc3ccc(Cl)c(C(F)(F)F)c3)cc2)ccn1
88

What value of kinase still bound, per cent of control has been reported for the following compound? C[C@@H](Oc1cc(-c2cnn(C3CCNCC3)c2)cnc1N)c1c(Cl)ccc(F)c1Cl
80

What value of kinase still bound, per cent of control has been reported for the following compound? O=C1NC(=O)/C(=C/c2ccc3nccc(-c4ccncc4)c3c2)S1
76

What value of kinase still bound, per cent of control has been reported for the following compound? CS(=O)(=O)N1CCN(Cc2cc3nc(-c4cccc5[nH]ncc45)nc(N4CCOCC4)c3s2)CC1
100

What value of kinase still bound, per cent of control has been reported for the following compound? CCN(CC)CCCCNc1ncc2cc(-c3cc(OC)cc(OC)c3)c(NC(=O)NC(C)(C)C)nc2n1
100

Continuing:
What value of kinase still bound, per cent of control has been reported for the following compound? CCN(CC)CCCCNc1ncc2c(n1)N(C)C(=O)N(c1c(Cl)c(OC)cc(OC)c1Cl)C2
100

What value of kinase still bound, per cent of control has been reported for the following compound? NC(=O)Nc1cc(-c2cccc(F)c2)sc1C(=O)N[C@@H]1CCCNC1
0.15

What value of kinase still bound, per cent of control has been reported for the following compound? O=c1cc(N2CCOCC2)oc2c(-c3cccc4c3sc3ccccc34)cccc12
100

What value of kinase still bound, per cent of control has been reported for the following compound? Cc1n[nH]c2ccc(-c3cncc(OC[C@@H](N)Cc4c[nH]c5ccccc45)c3)cc12
100

What value of kinase still bound, per cent of control has been reported for the following compound? COc1cc(N2CCN(C)CC2)ccc1Nc1ncc2c(n1)N(C)c1ccccc1C(=O)N2C
100

What value of kinase still bound, per cent of control has been reported for the following compound? CNC(=O)c1ccc(Nc2cc(Nc3ccccc3S(=O)(=O)C(C)C)c3cc[nH]c3n2)nc1
0.85

What value of kinase still bound, per cent of control has been reported for the following compound? COc1ccc(N(C(=O)Oc2c(C)cccc2C)c2ccnc(Nc3ccc(N4CCN(C)CC4)cc3)n2)c(OC)c1
0.6

###

target-desc: GSK3B (human) (UniProt P49841)
Sequence (P49841 whole entry, looked up): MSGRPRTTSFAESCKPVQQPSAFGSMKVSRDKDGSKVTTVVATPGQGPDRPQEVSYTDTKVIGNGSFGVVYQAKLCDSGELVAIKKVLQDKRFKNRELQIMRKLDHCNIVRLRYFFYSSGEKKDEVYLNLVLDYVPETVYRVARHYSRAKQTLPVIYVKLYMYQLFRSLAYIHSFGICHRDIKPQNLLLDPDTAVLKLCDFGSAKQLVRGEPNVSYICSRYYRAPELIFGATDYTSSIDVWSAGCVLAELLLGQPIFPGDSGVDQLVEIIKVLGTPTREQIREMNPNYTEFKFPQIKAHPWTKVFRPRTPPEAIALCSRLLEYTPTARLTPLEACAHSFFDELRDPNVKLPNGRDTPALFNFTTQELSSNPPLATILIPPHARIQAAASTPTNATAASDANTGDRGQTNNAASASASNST
protocol-text: KINOMEscan competition binding
applied-conditions: compound 10.0 µM
observation-type: kinase still bound, per cent of control (%)
Answer format: numeric, % implied, no suffix.

What value of kinase still bound, per cent of control has been reported for the following compound? CCN1CCN(C(=O)Cc2ccc(Nc3ncc(F)c(Nc4ccc(C(=O)Nc5ccccc5Cl)cc4)n3)cc2)CC1
61

What value of kinase still bound, per cent of control has been reported for the following compound? O=C1NC(=O)/C(=C/c2ccc3nccc(-c4ccncc4)c3c2)S1
66

What value of kinase still bound, per cent of control has been reported for the following compound? Cc1n[nH]c2ccc(-c3cncc(OC[C@@H](N)Cc4c[nH]c5ccccc45)c3)cc12
1

What value of kinase still bound, per cent of control has been reported for the following compound? O=C(Nc1cccc(Nc2ncc(Br)c(NCCc3cnc[nH]3)n2)c1)N1CCCC1
44

What value of kinase still bound, per cent of control has been reported for the following compound? COCC(=O)NC/C=C/c1ccc2ncnc(Nc3ccc(Oc4ccc(C)nc4)c(C)c3)c2c1
68

What value of kinase still bound, per cent of control has been reported for the following compound? C[C@@H](Oc1cc(-c2cnn(C3CCNCC3)c2)cnc1N)c1c(Cl)ccc(F)c1Cl
100

Consider now this further compound.
What value of kinase still bound, per cent of control has been reported for the following compound? CCN(CC)CCCCNc1ncc2cc(-c3cc(OC)cc(OC)c3)c(NC(=O)NC(C)(C)C)nc2n1
100

###

target-desc: FYN (human) (UniProt P06241)
Sequence (P06241 whole entry, looked up): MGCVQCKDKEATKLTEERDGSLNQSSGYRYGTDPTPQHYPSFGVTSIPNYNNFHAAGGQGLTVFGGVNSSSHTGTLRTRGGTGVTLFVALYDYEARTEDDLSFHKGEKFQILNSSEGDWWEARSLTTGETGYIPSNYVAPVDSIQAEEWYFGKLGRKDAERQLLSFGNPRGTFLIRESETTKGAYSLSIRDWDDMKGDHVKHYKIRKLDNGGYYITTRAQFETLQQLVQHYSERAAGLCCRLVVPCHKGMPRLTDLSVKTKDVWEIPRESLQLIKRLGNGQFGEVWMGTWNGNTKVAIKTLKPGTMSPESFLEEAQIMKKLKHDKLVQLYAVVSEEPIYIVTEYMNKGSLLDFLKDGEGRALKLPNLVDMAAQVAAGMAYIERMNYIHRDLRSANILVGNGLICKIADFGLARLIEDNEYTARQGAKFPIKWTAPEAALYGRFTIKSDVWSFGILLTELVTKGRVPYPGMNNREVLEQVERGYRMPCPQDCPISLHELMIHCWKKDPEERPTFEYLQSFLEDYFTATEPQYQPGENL
protocol-text: KINOMEscan competition binding
applied-conditions: compound 10.0 µM
observation-type: kinase still bound, per cent of control
Could you write the number and then its unit?

Some compounds with recorded kinase still bound, per cent of control:
What value of kinase still bound, per cent of control has been reported for the following compound? COc1cc2ncn(-c3cc(OCc4ccccc4C(F)(F)F)c(C(N)=O)s3)c2cc1OC
48%

What value of kinase still bound, per cent of control has been reported for the following compound? COc1cc2ncnc(-n3nc(-c4ccccn4)nc3N)c2cc1OC
25%

What value of kinase still bound, per cent of control has been reported for the following compound? CN(C)C/C=C/C(=O)Nc1ccc(C(=O)Nc2cccc(Nc3nccc(-c4cccnc4)n3)c2)cc1
100%

Continuing:
What value of kinase still bound, per cent of control has been reported for the following compound? N#CCNC(=O)c1ccc(-c2ccnc(Nc3ccc(N4CCOCC4)cc3)n2)cc1
78%

###

target-desc: MAPK1 (human) (UniProt P28482)
Sequence (P28482 whole entry, looked up): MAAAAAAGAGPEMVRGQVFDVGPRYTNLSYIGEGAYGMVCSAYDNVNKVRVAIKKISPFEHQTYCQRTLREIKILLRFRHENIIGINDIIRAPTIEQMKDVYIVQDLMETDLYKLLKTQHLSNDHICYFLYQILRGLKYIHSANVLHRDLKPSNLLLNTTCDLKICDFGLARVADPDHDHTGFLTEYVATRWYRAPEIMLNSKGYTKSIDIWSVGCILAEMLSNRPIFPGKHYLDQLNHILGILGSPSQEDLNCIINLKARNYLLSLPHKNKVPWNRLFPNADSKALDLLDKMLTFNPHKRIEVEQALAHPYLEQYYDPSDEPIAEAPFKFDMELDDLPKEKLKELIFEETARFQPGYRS
protocol-text: KINOMEscan competition binding
applied-conditions: compound 10.0 µM
Listing of entries alongside the reported kinase still bound, per cent of control.
Answer format: numeric, % implied, no suffix.

Write down the reported kinase still bound, per cent of control of COc1cc2ncn(-c3cc(OCc4ccccc4C(F)(F)F)c(C(N)=O)s3)c2cc1OC , test system: MAPK1 (human) (UniProt P28482).
86

Continuing:
Write down the reported kinase still bound, per cent of control of COc1cc2ncnc(-n3nc(-c4ccccn4)nc3N)c2cc1OC , test system: MAPK1 (human) (UniProt P28482).
56

Write down the reported kinase still bound, per cent of control of CN(C)C/C=C/C(=O)Nc1ccc(C(=O)Nc2cccc(Nc3nccc(-c4cccnc4)n3)c2)cc1 , test system: MAPK1 (human) (UniProt P28482).
77

Write down the reported kinase still bound, per cent of control of C[C@@H](Oc1cc(-c2cnn(C3CCNCC3)c2)cnc1N)c1c(Cl)ccc(F)c1Cl , test system: MAPK1 (human) (UniProt P28482).
100

Write down the reported kinase still bound, per cent of control of N#CCNC(=O)c1ccc(-c2ccnc(Nc3ccc(N4CCOCC4)cc3)n2)cc1 , test system: MAPK1 (human) (UniProt P28482).
93

Data origin: the kinase profiling compilation of Christmann-Franck et al. (2016)
